tested on: human liver microsomes, compound remaining, LC-MS; assay: human microsomal compound turnover – biochemical, with and without NADPH, LC-MS, set 2, ADME assay (AID 624452); settings: measured here: stability without NADPH control; at 1 µM;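 note: compound left measured after 60 min microsomal incubation at 37 °C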
reported endpoint: percent remaining without NADPH (%)

The examples below pair each entry with its known result.
[[record]]
molecule_smiles = "COc1ccc(S(=O)(=O)N2CCN(S(=O)(=O)c3ccc4c(c3)OCCO4)CC2)cc1"
test_result = 55.8

[[record]]
molecule_smiles = "CCCc1cc(C(=O)N(C2CCCCC2)C2CCCCC2)no1"
test_result = 57.6

[[record]]
molecule_smiles = "CCc1oc2ccccc2c1C(=O)c1cc(Br)c(O)c(Br)c1"
test_result = 75.6

[[record]]
molecule_smiles = "CN(C)c1nc(N)nc(CSc2nnnn2-c2cccc3ccccc23)n1"
test_result = 77.6

[[record]]
molecule_smiles = "Cc1ccc(NC(=O)CCC(=O)N/N=C/c2ccc([N+](=O)[O-])o2)cc1C"
test_result = 72.6

[[record]]
molecule_smiles = "Cc1ccc(C)c(NS(=O)(=O)c2cc(C(=O)Nc3ccccc3-c3ccccc3)ccc2Cl)c1"
test_result = 75.9


[a] COc1cccc(-c2nc(-c3ccc(NC(=O)Cc4ccccc4OC)cc3)no2)c1
[b] COC(=O)c1ccccc1NC(=O)c1ccc(F)cc1
### Prompt Would you mind telling me which has the lower recorded percent remaining without NADPH between a and b ? API: response body contains the label of the selected item.
### Response a

====

test system: human liver microsomes, compound remaining, LC-MS; test: human microsomal compound turnover – biochemical, with and without NADPH, LC-MS, set 2, ADME assay (AID 624452); details: at 1 µM;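 note: compound left measured after 60 min microsomal incubation at 37 °C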
reported endpoint: percent remaining with NADPH (%)

Take a look at these entries with their results.
[[record]]
compound = "COc1ccc(C2c3c(ncn(CCN4CCOCC4)c3=N)Oc3ccc4ccccc4c32)cc1OC (stereo not given)"
value_units = "%"
test_result = 7.15

[[record]]
compound = "COc1cccc(-c2nc(-c3ccc(NC(=O)Cc4ccccc4OC)cc3)no2)c1"
value_units = "%"
test_result = 11.1

[[record]]
compound = "Cc1ccc(S(=O)(=O)n2c(N)nc3ccccc32)cc1"
value_units = "%"
test_result = 21


[P] Cc1ccnc(NC(=O)CCCOc2cc(=O)n(C)c3ccccc23)c1
[Q] CC(C)C(=O)NC(c1ccco1)c1ccc2cccnc2c1O (stereo not given)
### Prompt Which of the two items, P and Q , has the greater recorded percent remaining with NADPH? Use the label to indicate which entry you chose.
### Response Q
(Q: 49.2%, P: 0.99%)

====

test system: human liver microsomes, compound remaining, LC-MS; assay: human microsomal compound turnover – biochemical, with and without NADPH, LC-MS, set 2, ADME assay (AID 624452); details: at 1 µM;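 note: compound left measured after 60 min microsomal incubation at 37 °C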
reported endpoint: percent remaining with NADPH (%)

Observe how each entry below is paired with its result.
[[record]]
molecule_smiles = "CCCC(=O)Nc1cccc(NC(=O)c2ccccc2Br)c1"
assayed_system = "human liver microsomes, compound remaining, LC-MS"
test_result = 46

[[record]]
molecule_smiles = "C=CCn1c(SCC(=O)c2ccc(O)c(O)c2)nnc1-c1ccccc1OC"
assayed_system = "human liver microsomes, compound remaining, LC-MS"
test_result = 30.6


[1] COc1ccccc1N(/N=C1\Sc2ccccc2C1=O)C(C)=O
[2] Cc1ccc(C(=O)n2c3ccccc3c3ccccc32)cc1
[3] CC[C@H]1CN2CCc3cc(OC)c(OC)cc3[C@@H]2C[C@@H]1C[C@H]1NCCc2cc(OC)c(OC)cc21
### Prompt Sort low-to-high on percent remaining with NADPH, please. Order the labels as requested and list them.
### Response 1, 2, 3
